Source: PubChem BioAssay AID1963968

System: 945468-187-T-J3-PDC spheroids with HUVEC/MSC, viability
Assay: Anticancer human tumor 945468-187-T-J3-PDC patient-derived rectal carcinoma cell line growth inhibition [PI3K]
Settings: second compound 0.00316 µM; first compound 0.0316 µM; active compounds read low
readout: viability, T/C (%)
Supply the numeric figure in %, leaving out any unit text.

- molecule: "CC(C)NCC(C(=O)N1CCN(c2ncnc3c2C(C)CC3O)CC1)c1ccc(Cl)cc1 (stereo not drawn) + COc1c(OCCCN2CCOCC2)ccc2c3n(c(=NC(=O)c4cnc(N)nc4)nc12)CCN3"
  readout: "viability, T/C"
  result: 94.2
- molecule: "CC1(C)CCC(Nc2ncc(C(F)(F)F)c(-c3c[nH]c4c(P(C)(C)=O)c(C#N)ccc34)n2)CN1 (stereo not drawn) + CC(Nc1ccc2c(c1)OCCn1cc(N3C(=O)OCC3C(F)F)nc1-2)C(N)=O"
  readout: "viability, T/C"
  result: 83.5

As a next step, examine the molecule that follows.
viability, T/C of Cn1nccc1Nc1nccc(-c2ccn(C(CO)c3ccc(Cl)c(F)c3)c(=O)c2)n1 (stereo not drawn) + CC(Nc1ccc2c(c1)OCCn1cc(N3C(=O)OCC3C(F)F)nc1-2)C(N)=O , assay on 945468-187-T-J3-PDC spheroids with HUVEC/MSC, viability, is 93.2

---

System: 945468-187-T-J3-PDC spheroids with HUVEC/MSC, viability
Assay: Anticancer human tumor 945468-187-T-J3-PDC cell line growth inhibition [PI3K]; active = viability on the fitted dose curve at most 10% of control; inactive = the rest;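 note: spheroids exposed to agents for 7 days before viability read; 100% = DMSO vehicle control viability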
Conditions: second compound 1 µM; first compound 10 µM
Answer with one of the outcomes active, inactive

- compound: "Cn1nccc1Nc1nccc(-c2ccn(C(CO)c3ccc(Cl)c(F)c3)c(=O)c2)n1 (stereo not given) + Cc1nc(NC(=O)N2CCCC2C(N)=O)sc1-c1ccnc(C(C)(C)C(F)(F)F)c1"
  category: "inactive"
- compound: "C=CC(=O)N1CCN(c2nc(=O)n(-c3c(C)ccnc3C(C)C)c3nc(-c4c(O)cccc4F)c(F)cc23)C(C)C1 (stereo not given) + Cc1nc(NC(=O)N2CCCC2C(N)=O)sc1-c1ccnc(C(C)(C)C(F)(F)F)c1"
  category: "inactive"
- compound: "CC1(C)CCC(Nc2ncc(C(F)(F)F)c(-c3c[nH]c4c(P(C)(C)=O)c(C#N)ccc34)n2)CN1 (stereo not given) + COc1c(OCCCN2CCOCC2)ccc2c3n(c(=NC(=O)c4cnc(N)nc4)nc12)CCN3"
  category: "active"
- compound: "CC1(C)CCC(Nc2ncc(C(F)(F)F)c(-c3c[nH]c4c(P(C)(C)=O)c(C#N)ccc34)n2)CN1 (stereo not given) + CC(Nc1ccc2c(c1)OCCn1cc(N3C(=O)OCC3C(F)F)nc1-2)C(N)=O"
  category: "active"

Please find the next compound below.
Lookup: What is the recorded call for this compound in the test? CCCS(=O)(=O)Nc1ccc(F)c(C(=O)c2c[nH]c3ncc(-c4ccc(Cl)cc4)cc23)c1F + COc1c(OCCCN2CCOCC2)ccc2c3n(c(=NC(=O)c4cnc(N)nc4)nc12)CCN3
Found: inactive

---

Test system: 945468-187-T-J3-PDC spheroids with HUVEC/MSC, viability
Test: Anticancer human tumor 945468-187-T-J3-PDC cell line growth inhibition [PI3K];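 note: spheroids exposed to agents for 7 days before viability read; 100% = DMSO vehicle control viability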
Details: compound 0.00316 µM; active compounds read low
readout: viability, T/C

Worked cases, viability, T/C given:
- compound: "CCN1CCN(Cc2ccc(Nc3ncc(F)c(-c4cc(F)c5nc(C)n(C(C)C)c5c4)n3)nc2)CC1"
  measured on: "945468-187-T-J3-PDC spheroids with HUVEC/MSC, viability"
  viability, T/C: "91.2% [middle of 4 runs]"
- compound: "CC(C)n1nc(-c2ccc3oc(N)nc3c2)c2c(N)ncnc21"
  measured on: "945468-187-T-J3-PDC spheroids with HUVEC/MSC, viability"
  viability, T/C: "104% [middle of 4 runs]"
- compound: "COc1c(OCCCN2CCOCC2)ccc2c3n(c(=NC(=O)c4cnc(N)nc4)nc12)CCN3"
  measured on: "945468-187-T-J3-PDC spheroids with HUVEC/MSC, viability"
  viability, T/C: "96% [middle of 8 runs]"

As a next step, examine the compound that follows.
viability, T/C measured on CC(Nc1ccc2c(c1)OCCn1cc(N3C(=O)OCC3C(F)F)nc1-2)C(N)=O (centres undefined) = 103% [middle of 7 runs]
